Test System: 26S proteasome (Oryctolagus cuniculus, UniProt G1T4Q9)
Sequence (G1T4Q9 1-263): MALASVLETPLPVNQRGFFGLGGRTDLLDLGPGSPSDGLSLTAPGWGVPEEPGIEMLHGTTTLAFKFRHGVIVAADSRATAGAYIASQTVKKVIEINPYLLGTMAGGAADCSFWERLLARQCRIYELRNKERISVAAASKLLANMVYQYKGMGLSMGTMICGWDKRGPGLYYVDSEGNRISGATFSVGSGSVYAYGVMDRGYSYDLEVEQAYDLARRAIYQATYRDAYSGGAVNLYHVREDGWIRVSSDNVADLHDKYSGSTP
Non-standard residues stand in square brackets, D forms with d. Residues, ends and D or L forms follow the SMILES beside them. *: point of attachment. 2Nal = N[C@@H](Cc1ccc2ccccc2c1)C(=O)O; Nle = CCCC[C@H](N)C(=O)O; Nva = CCC[C@H](N)C(=O)O; Abu = CC[C@H](N)C(=O)O; Cbz = O=C(OCc1ccccc1)*
In plain terms, low Ki, meaning strictly below 200 nM, gives Yes, and everything else gives No.

# Compound, Category Label
measured = [
    ("CC(C)C[C@H](NC(=O)OCc1ccccc1)C(=O)N[C@@H](CC(C)C)C(=O)N[C@H](C=O)C(C)C [MG 120] (Cbz-Leu-Leu-Val-aldehyde)", "No"),
    ("CC(C)C[C@H](NC(=O)OCc1ccccc1)C(=O)N[C@@H](CC(C)C)C(=O)N[C@@H](C)C=O [MG 111] (Cbz-Leu-Leu-Ala-aldehyde)", "No"),
    ("CCC[C@@H](C=O)NC(=O)[C@H](CC(C)C)NC(=O)[C@H](CC(C)C)NC(=O)OCc1ccccc1 [MG 115, Z-Leu-Leu-Nva-H] (Cbz-Leu-Leu-[Nva]-aldehyde)", "Yes"),
    ("CCCC[C@@H](C=O)NC(=O)[C@H](CC(C)C)NC(=O)[C@H](CC(C)C)NC(C)=O [MG 101, Ac-Leu-Leu-Nle-H] (Ac-Leu-Leu-[Nle]-aldehyde)", "No"),
    ("CC(C)C[C@H](NC(=O)OCc1ccccc1)C(=O)N[C@@H](CC(C)C)C(=O)N[C@H](C=O)Cc1ccc2ccccc2c1 [MG 121, Z-Leu-Leu-Nal-H] (Cbz-Leu-Leu-[2Nal]-aldehyde)", "Yes"),
    ("CC(C)C[C@H](NC(=O)OCc1ccccc1)C(=O)N[C@@H](CC(C)C)C(=O)N[C@H](C=O)Cc1ccccc1 [MG 110, Z-Leu-Leu-Phe-H] (Cbz-Leu-Leu-Phe-aldehyde)", "Yes"),
    ("CSCC[C@@H](C=O)NC(=O)[C@H](CC(C)C)NC(=O)[C@H](CC(C)C)NC(C)=O [MG 102, reference compound] (Ac-Leu-Leu-Met-aldehyde)", "No"),
    ("COC(=O)C(=O)[C@H](Cc1ccccc1)NC(=O)[C@H](CC(C)C)NC(=O)[C@H](CC(C)C)NC(=O)OCc1ccccc1", "No"),
    ("CCCC[C@@H](C=O)NC(=O)[C@H](CC(C)C)NC(=O)[C@H](CC(C)C)NC(=O)OCc1ccccc1 [MG 114, Z-Leu-Leu-Nle-H] (Cbz-Leu-Leu-[Nle]-aldehyde)", "Yes"),
    ("CC(C)C[C@H](NC(=O)OCc1ccccc1)C(=O)N[C@@H](CC(C)C)C(=O)NCC=O [MG 118] (Cbz-Leu-Leu-Gly-aldehyde)", "No"),
    ("CC[C@@H](C=O)NC(=O)[C@H](CC(C)C)NC(=O)[C@H](CC(C)C)NC(=O)OCc1ccccc1 [MG 119] (Cbz-Leu-Leu-[Abu]-aldehyde)", "No"),
]
